target: equine oxy-Mb (Equus caballus); construct: Horse heart muscle myoglobin (Mb), chicken egg white lysozyme, sodium lactate (LAC), and sodium dithionite were purchased from Sigma Aldrich; purchased Sigma Aldrich, St. Louis, MO, USA; host or cells: horse heart muscle; test: ITC binding of lactate to oxy-Mb; details: pH 6.4, 25 °C, n = 5
pKd: −log10 of the molar value.
assay endpoint: pKd

Input line: For CC(O)C(=O)[O-].[Na+] (stereo not shown) [LAC, sodium lactate] , write its pKd.
Output line: ~5.15

###

molecular target: equine deoxy-Mb (Equus caballus); construct: Horse heart muscle myoglobin (Mb), chicken egg white lysozyme, sodium lactate (LAC), and sodium dithionite were purchased from Sigma Aldrich; purchased Sigma Aldrich, St. Louis, MO, USA; host or cells: horse heart muscle; assay: ITC binding of lactate to deoxy-Mb; conditions: pH 6.4, 25 °C, n = 5
pKd: −log10 of the molar value.
assay endpoint: pKd

Input line: For CC(O)C(=O)[O-].[Na+] (stereo not shown) [LAC, sodium lactate] , write its pKd.
Output line: ~4.85

###

target: equine deoxy-Mb (Equus caballus, UniProt P68082); construct: Horse heart muscle myoglobin (Mb), chicken egg white lysozyme, sodium lactate (LAC), and sodium dithionite were purchased from Sigma Aldrich; purchased Sigma Aldrich, St. Louis, MO, USA; host or cells: horse heart muscle; assay: ITC binding of lactate to deoxy-Mb; settings: pH 6.4, 25 °C, n = 5; listed as lactate
Sequence (P68082 whole entry): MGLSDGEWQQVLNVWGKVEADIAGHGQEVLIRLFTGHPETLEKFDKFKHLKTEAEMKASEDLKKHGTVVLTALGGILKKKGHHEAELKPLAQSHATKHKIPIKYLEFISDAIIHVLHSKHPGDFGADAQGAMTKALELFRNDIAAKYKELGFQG
assay endpoint: pKd
Note: pKd values are expressed as the negative base-10 logarithm of concentration in M.

Input line: Please look at CC(O)C(=O)[O-].[Na+] (stereo not shown) [LAC, sodium lactate] and tell me its recorded pKd on equine deoxy-Mb (Equus caballus, UniProt P68082).
Output line: 4.86

###

target: equine oxy-Mb (Equus caballus, UniProt P68082); construct: Horse heart muscle myoglobin (Mb), chicken egg white lysozyme, sodium lactate (LAC), and sodium dithionite were purchased from Sigma Aldrich; purchased Sigma Aldrich, St. Louis, MO, USA; host or cells: horse heart muscle; experiment: ITC binding of lactate to oxy-Mb; conditions: pH 7.0, 25 °C, n = 5
Sequence (P68082 whole entry): as above
assay endpoint: pKd
Note: pKd values are expressed as the negative base-10 logarithm of concentration in M.

Input line: For CC(O)C(=O)[O-].[Na+] (stereo not shown) [LAC, sodium lactate] , write its pKd.
Output line: 4.68

###

target: equine oxy-Mb (Equus caballus); construct: Horse heart muscle myoglobin (Mb), chicken egg white lysozyme, sodium lactate (LAC), and sodium dithionite were purchased from Sigma Aldrich; purchased Sigma Aldrich, St. Louis, MO, USA; host or cells: horse heart muscle; assay: ITC binding of lactate to oxy-Mb; settings: pH 6.0, 25 °C, n = 5
assay endpoint: Kd (µM)
Write down the numeric answer in µM and omit the unit.

Input line: For CC(O)C(=O)[O-].[Na+] (stereo not shown) [LAC, sodium lactate] , write its Kd.
Output line: 1.9

###

Biological target: equine oxy-Mb (Equus caballus)
Construct: Horse heart muscle myoglobin (Mb), chicken egg white lysozyme, sodium lactate (LAC), and sodium dithionite were purchased from Sigma Aldrich; purchased Sigma Aldrich, St. Louis, MO, USA; host or cells: horse heart muscle
Experiment: ITC binding of lactate to oxy-Mb
Conditions: pH 6.4, 25 °C, n = 5; listed as lactate
Method: Preparations enriched in oxygenated and deoxygenated forms of Mb were prepared as described by our earlier publication related to Mb interaction with fatty acids and acylcarnitines. Briefly, 500 µM of Mb was dissolved in 50 mM sodium phosphate buffer of desired test pH. […] Thereafter, the solution was subjected to a desalting column to remove the reducing agent and to remove the interference, particularly in O2 release kinetics and UV-Vis spectroscopy absorbance peaks. […]
assay endpoint: pKd
Note: pKd values are expressed as the negative base-10 logarithm of concentration in M.

Input line: For CC(O)C(=O)[O-].[Na+] (stereo not shown) [LAC, sodium lactate] , write its pKd.
Output line: 5.16
